Values were extracted from the nanobody polyreactivity screen of Harvey et al. (2022).

# experiment: yeast display, Sf9 membrane polyspecificity reagent, FACS + sequencing; frameworks hold sequencing errors
value-type: polyreactivity (PSR sort gate)

In the examples that follow, each entry is paired with its recorded polyreactivity (PSR sort gate).
{"macromolecule-sequence": "QVQLVESGGGLVQAGGSLRLSCAASGSTFDVNTMGWYRQAPGTERELVAAIRLRGGSTYYADSVKGRFTISRDNAKNTVYLQMNSLKPEDTAVYYCAADYTLIYDYWGQGTQVTVSS", "polyreactivity (PSR sort gate)": "low polyreactivity"}
{"macromolecule-sequence": "QVQLVESGGGLVQAGGSLRLSCAASGSTFGSNAMGWYRQAPGKERELVAAISWTGGSTYYADSVKGRFTISRDNAKYTVYLQMKSLKPEDTAVYYCNAYGYGYPLYRYDYWGQGTQVTVSS", "polyreactivity (PSR sort gate)": "low polyreactivity"}
{"macromolecule-sequence": "QVHLVESGVGLVQAGGSLRLSCAASGYTFPAYAMGRYRQAPVKERELVAGISSGGRTYYAYSVKGRFTISRDNAKNTVYLQMNSLKPEDTAVYYCAAFRFYWQSPERYYYWGQGTQVSVSS", "polyreactivity (PSR sort gate)": "high polyreactivity"}
{"macromolecule-sequence": "QVQLVESGGGLVQAGGSLRLSCAASGSIFDYYAMGWYRPAPVKERELVAAISDSGSTYYADSVKGRFTISRDNAKNTVYLQMNSLKPEDTAVYYCAAVLWSPYLSEPLETYEYWGQGTQVTVSS", "polyreactivity (PSR sort gate)": "low polyreactivity"}
{"macromolecule-sequence": "QVQLVESGGGLVQAGGSLRLSCAASGRIFPWYAMGWYRQAPGKERALVAAINWRAGRTYYADSVKGRFTISRDNAKNTVYLQMNSLKPEDTAVYYCAAETYSSGEWYDYWGQGTQVTVSS", "polyreactivity (PSR sort gate)": "high polyreactivity"}
{"macromolecule-sequence": "QVQLVESGGGLVQAGGSLRLSCAASGLTFYYYTMGWYRQAPGKERELVAAIDNGGGTNYADSVKGRFTISRDNAKNTVYLQMNSLKPEDTAVYYCAADRSYYIIIGYDLFAYYYWGQGTQVTVSS", "polyreactivity (PSR sort gate)": "low polyreactivity"}

Switching to the query record.
Q) Look at this sequence and give its reported polyreactivity (PSR sort gate). QVQLVESGGGLVQAGGSLRLSCAASGFTFYRNAMGWYRQAPGKERELVAAITWSGTSTYYADSVKGRFTISRDNAKNTVYLQMNSPKPEDTAVYYCNTVGYRGRSNSRFYYWGQGTQVTVSS
A) high polyreactivity
